Target of assay: cyp1a2 (Rattus norvegicus, UniProt P04799)
Sequence (P04799 whole entry): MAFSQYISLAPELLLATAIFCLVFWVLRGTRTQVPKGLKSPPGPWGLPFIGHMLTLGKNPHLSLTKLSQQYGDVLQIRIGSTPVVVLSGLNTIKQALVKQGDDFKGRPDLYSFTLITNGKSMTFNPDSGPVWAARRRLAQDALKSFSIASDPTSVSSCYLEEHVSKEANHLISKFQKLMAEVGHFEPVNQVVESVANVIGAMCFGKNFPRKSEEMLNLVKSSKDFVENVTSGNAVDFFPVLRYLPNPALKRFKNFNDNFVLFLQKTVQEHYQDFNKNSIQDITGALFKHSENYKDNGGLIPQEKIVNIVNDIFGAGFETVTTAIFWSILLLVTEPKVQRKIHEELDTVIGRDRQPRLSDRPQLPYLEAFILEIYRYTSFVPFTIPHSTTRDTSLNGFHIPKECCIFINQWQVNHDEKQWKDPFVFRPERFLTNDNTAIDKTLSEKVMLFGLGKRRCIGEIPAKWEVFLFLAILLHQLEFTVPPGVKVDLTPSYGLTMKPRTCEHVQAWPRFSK
Measured metric: IC50 (µM)
One number for each entry, in µM.

Req: Requested read-out: IC50. Entry: C=CC(=O)N1CCC(Oc2cc3c(Nc4ccc(Cl)c(Cl)c4F)ncnc3cc2OC)CC1 [Poziotinib]
Resp: 128

###

Protocol notes: Pharmacokinetics of probe substrates in rats with or without poziotinib pre-treatment
Condition set: male, Sprague-Dawley, rat, in vivo, po, Vz/F, Control group: oral probe cocktail only (10 mg/kg; tolbutamide 1 mg/kg), rats, n = 6
Description: Samples were analyzed by a UPLC-MS/MS system equipped with a triple quadrupole mass spectrometer (Waters Corp., Milford, MA, United States) and Acquity UPLC BEH C18 column (1.7 μm, 2.1 × 50 mm) at 40°C. The mobile phase consisted of acetonitrile (A) and 0.1% formic acid (B) with a linear gradient elution at 0.4 ml/min for 3 min. […] Pharmacokinetic parameters were calculated using DAS software (Version 3.2.8). […]
Measured metric: Vd/F
Reply with the number and its unit after it.

Req: Requested read-out: Vd/F. Entry: `COc1ccc2c(c1)[C@]13CCCC[C@@H]1[C@H](C2)N(C)CC3`
Resp: 49 L/kg

###

Protocol notes: Pharmacokinetics of probe substrates in rats with or without poziotinib pre-treatment
Condition set: male, Sprague-Dawley, rat, plasma, po, 10 mg/kg, Vz/F, Treated group: oral probe cocktail (10 mg/kg; tolbutamide 1 mg/kg) after 7 days oral poziotinib 5 mg/kg, rats, n = 6
Would you kindly list Vd/F for each of these compounds?
Give bare numbers, in L/kg.

CCOc1ccc(NC(C)=O)cc1 :: 4.77

Req: Requested read-out: Vd/F. Entry: CC(NC(C)(C)C)C(=O)c1cccc(Cl)c1 (centres unmarked)
Resp: 81.8

###

Protocol notes: Pharmacokinetics of probe substrates in rats with or without poziotinib pre-treatment
Condition set: male, Sprague-Dawley, rat, in vivo, po, 10 mg/kg, AUC(0–t), Treated group: oral probe cocktail (10 mg/kg; tolbutamide 1 mg/kg) after 7 days oral poziotinib 5 mg/kg, rats, n = 6
Measured metric: AUC(0-t)
Reply with the number and its unit after it.

Req: Requested read-out: AUC(0-t). Entry: `Cc1ncc2n1-c1ccc(Cl)cc1C(c1ccccc1F)=NC2`
Resp: 1280 ng·h/mL

###

Protocol notes: Pharmacokinetics of probe substrates in rats with or without poziotinib pre-treatment
Condition set: male, Sprague-Dawley, rat, plasma, po, 10 mg/kg, Cmax, Treated group: oral probe cocktail (10 mg/kg; tolbutamide 1 mg/kg) after 7 days oral poziotinib 5 mg/kg, rats, n = 6
Would you kindly list Cmax for each of these compounds?
Give bare numbers, in ng/mL.

CCOc1ccc(NC(C)=O)cc1 :: 1490

Next item in the queue.
Req: Requested read-out: Cmax. Entry: CC(NC(C)(C)C)C(=O)c1cccc(Cl)c1 (centres unmarked)
Resp: 173

###

Protocol notes: Pharmacokinetics of probe substrates in rats with or without poziotinib pre-treatment
Condition set: male, Sprague-Dawley, rat, plasma, po, 10 mg/kg, Cmax, Control group: oral probe cocktail only (10 mg/kg; tolbutamide 1 mg/kg), rats, n = 6
Measured metric: Cmax (ng/mL)
One number for each entry, in ng/mL.

Req: Requested read-out: Cmax. Entry: CC(NC(C)(C)C)C(=O)c1cccc(Cl)c1 (stereo not shown)
Resp: 170

###

Protocol notes: Pharmacokinetics of probe substrates in rats with or without poziotinib pre-treatment
Condition set: male, Sprague-Dawley, rat, in vivo, po, 10 mg/kg, AUC(0–∞), Control group: oral probe cocktail only (10 mg/kg; tolbutamide 1 mg/kg), rats, n = 6
Measured metric: AUC(0-inf) (µg·h/mL)
Give bare numbers, in µg·h/mL.

Req: Requested read-out: AUC(0-inf). Entry: `Cc1ncc2n1-c1ccc(Cl)cc1C(c1ccccc1F)=NC2`
Resp: 1.36

Numbers sourced from paper PMC7970697.
